Protocol Description: Solubility at pH 7
Format: physicochemical
Assay Context: buffer
Quantity Name: solubility (µg/mL)
Please state the figure in µg/mL; there is no need to write the unit.

Query :: Input "CCC(CC)Nc1cc(C)nc(Oc2c(C)cc(C)cc2C)c1C" , output reported solubility.
Result :: 0.1

Query :: Give solubility for the following molecule: "CCC(CC)Oc1cc(C)nc(Oc2c(C)cc(C)cc2C)c1C.CS(=O)(=O)O"
Result :: 0.2

----------
Protocol Description: Tmax in fed Beagle dog at 1.0 mg/kg, po
Assay type: ADME, organism-based, Canis lupus familiaris
Set-up: dose 1 mg/kg, route oral
Assay Context: in vivo
Quantity Name: Tmax (h)
Response body: numeric value in h, unit text excluded.

Query :: State its Tmax for this molecule: "CCC(CC)Nc1cc(C)nc(Oc2c(C)cc(C)cc2C)c1C"
Result :: 2

----------
Protocol Description: Oral bioavailability in fed Beagle dog at 5.0 mg/kg
Assay type: ADME, organism-based, Canis lupus familiaris
Assay Context: in vivo
Quantity Name: bioavailability (%)
// note: answer is a bare numeric in %

Query :: Give bioavailability for the following compound: "CCC(CC)Oc1cc(C)nc(Oc2c(C)cc(C)cc2C)c1C"
Result :: 37

----------
Protocol Description: Cmax in fasted Beagle dog at 1.0 mg/kg, po
Type: ADME, organism-based, Canis lupus familiaris
Set-up: dose 1 mg/kg, route oral
Assay Context: in vivo
Quantity Name: Cmax
Write the quantity with the unit trailing the number.

Query :: Tell me measured Cmax for "CCC(CC)Nc1cc(C)nc(Oc2c(C)cc(C)cc2C)c1C" please.
Result :: 46.2 ng/mL

----------
Experimental System: Corticotropin-releasing factor receptor 1 (Rattus norvegicus)
Sequence (P35353 whole entry): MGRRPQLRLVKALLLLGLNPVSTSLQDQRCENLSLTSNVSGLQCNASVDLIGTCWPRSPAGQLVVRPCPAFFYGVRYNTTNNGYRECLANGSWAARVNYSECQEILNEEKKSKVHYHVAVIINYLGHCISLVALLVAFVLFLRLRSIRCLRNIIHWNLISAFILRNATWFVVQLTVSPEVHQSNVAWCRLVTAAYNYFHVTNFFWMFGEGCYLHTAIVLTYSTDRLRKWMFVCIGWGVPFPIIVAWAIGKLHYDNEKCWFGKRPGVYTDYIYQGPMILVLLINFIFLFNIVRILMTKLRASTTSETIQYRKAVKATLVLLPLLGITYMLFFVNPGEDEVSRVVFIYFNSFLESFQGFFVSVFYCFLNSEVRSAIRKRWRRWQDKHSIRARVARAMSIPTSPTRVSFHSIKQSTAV
Protocol Description: Antagonist activity at CRF1 receptor in rat cortical membrane assessed as oCRF-stimulated adenylate cyclase activity after 15 mins by liquid scintillation
Assay type: functional, cell membranes
Assay Context: read-out: Ki app
Quantity Name: pKi
To interpret pKi, take it as minus log10 of a concentration measured in moles per litre.

Query :: Answer with the recorded pKi for the compound listed here: "CCC(CC)Nc1cc(C)nc(Oc2c(C)cc(C)cc2C)c1C"
Result :: 7.92

----------
Protocol Description: Metabolic stability in human liver microsomes assessed as half life
Format: ADME, Microsome
Quantity Name: half-life

Query :: Supply recorded half-life for "CCC(CC)Nc1cc(C)nc(Oc2c(C)cc(C)cc2C)c1C" here.
Result :: 38 min

Query :: Identify the reported half-life for the following entry. "CCC(CC)Nc1cc(C)nc(Oc2c(C)cc(Cl)cc2C)c1C"
Result :: 30 min

----------
Protocol Description: Volume of distribution at steady state in Beagle dog at 1.0 mg/kg, iv
Assay type: ADME, organism-based, Canis lupus familiaris
Design: dose 1 mg/kg, route intravenous
Assay Context: in vivo, read-out: Vdss
Quantity Name: Vd (L/kg)
Form entry: value (L/kg) — number only.

Query :: Annotate the compound "CCC(CC)Oc1cc(C)nc(Oc2c(C)cc(C)cc2C)c1C" with its measured Vd.
Result :: 1.1

Query :: Complete the entry with Vd for "CCC(CC)Nc1cc(C)nc(Oc2c(C)cc(C)cc2C)c1C"
Result :: 5.3

----------
Protocol Description: Clearance in Beagle dog at 1.0 mg/kg, iv
Format: ADME, organism-based, Canis lupus familiaris
Parameters: dose 1 mg/kg, route intravenous
Assay Context: in vivo
Exercise: state measured clearance for each of the molecules provided.
Expressed in mL/min/kg, but write only the number.

Query :: State its clearance for this molecule: "CCC(CC)Nc1cc(C)nc(Oc2c(C)cc(C)cc2C)c1C"
Result :: 17

Query :: Let me know recorded clearance for "CCC(CC)Oc1cc(C)nc(Oc2c(C)cc(C)cc2C)c1C" , thanks.
Result :: 4.1

----------
Protocol Description: Dissociation constant, pKa of the compound
Type: physicochemical
Quantity Name: pKa
Answer as a number with no unit attached.

Query :: Provide only the value of recorded pKa for "CCC(CC)Nc1cc(C)nc(Oc2c(C)cc(C)cc2C)c1C"
Result :: 6.9

Query :: Give me measured pKa, please, for this compound: "CCC(CC)Nc1cc(C)nc(Nc2c(C)cc(C)cc2C)c1C"
Result :: 9.3

Query :: Fill in pKa for record "CCC(CC)Oc1cc(C)nc(Oc2c(C)cc(C)cc2C)c1C.CS(=O)(=O)O"
Result :: 3.6

----------
Protocol Description: Fraction unbound ligand in human serum
Format: ADME, cell-free
Quantity Name: fraction unbound
Just the number, please, no unit after it.

Query :: Report measured fraction unbound; entry is "CC[C@@H](CO)Nc1cc(C)nc(Oc2c(C)cc(Cl)cc2C)c1C(=O)NC"
Result :: 0.045

----------
Protocol Description: Tmax in fasted Beagle dog at 1.0 mg/kg, po
Type: ADME, organism-based, Canis lupus familiaris
Set-up: dose 1 mg/kg, route oral
Assay Context: in vivo
Quantity Name: Tmax (h)
Field format: number, assumed h, no unit text.

Query :: Give recorded Tmax. "CCC(CC)Nc1cc(C)nc(Oc2c(C)cc(C)cc2C)c1C"
Result :: 1.8

----------
Protocol Description: Tmax in fed Beagle dog at 5.0 mg/kg, po
Format: ADME, organism-based, Canis lupus familiaris
Set-up: dose 5 mg/kg, route oral
Assay Context: in vivo
Quantity Name: Tmax (h)
I only need the number, in h, no unit after it.

Query :: Assign Tmax to the following record: "CCC(CC)Oc1cc(C)nc(Oc2c(C)cc(C)cc2C)c1C"
Result :: 1.9

----------
Protocol Description: Solubility at pH 2.4
Type: physicochemical
Assay Context: buffer
Quantity Name: solubility (µg/mL)
Give just the numeric value; µg/mL need not be written.

Query :: Answer with the recorded solubility of "CCC(CC)Nc1cc(C)nc(Oc2c(C)cc(C)cc2C)c1C" only.
Result :: 5400

----------
Protocol Description: Oral bioavailability in fasted Beagle dog at 5.0 mg/kg
Type: ADME, organism-based, Canis lupus familiaris
Assay Context: in vivo
Quantity Name: bioavailability (%)
Note: unit % is implicit; provide only the numeric part.

Query :: Answer with the recorded bioavailability for the compound listed here: "CCC(CC)Oc1cc(C)nc(Oc2c(C)cc(C)cc2C)c1C"
Result :: 3.6

----------
Experimental System: Corticotropin-releasing factor receptor 1 (Rattus norvegicus)
pIC50: −log10 of the molar value.
Binary classification by pIC50, with 8 as an inclusive lower bound for T; all other cases are F.

Query :: Textbook exercise: given the entry "CCC(CC)Oc1cc(C)nc(Nc2c(C)cc(C)cc2C)c1C" , state whether its pIC50 is greater than or equal to 8.
Result :: T

Query :: Check if pIC50 >= 8 (inclusive). Item: "CC[C@@H](CO)Nc1cc(C)nc(Oc2c(C)cc(Cl)cc2C)c1C(=O)NC"
Result :: F

Query :: Test whether the molecule "CCC(CC)Nc1cc(C)nc(Oc2c(C)cc(C)cc2C)c1C" records pIC50 of 8 or higher.
Result :: T

Query :: Quick check, pIC50 >= 8? "CCC(CC)Nc1cc(C)nc(Oc2c(C)cc(Br)cc2C)c1C"
Result :: T

----------
Protocol Description: Cmax in fed Beagle dog at 5.0 mg/kg, po
Assay type: ADME, organism-based, Canis lupus familiaris
Set-up: dose 5 mg/kg, route oral
Assay Context: in vivo
Quantity Name: Cmax (ng/mL)
Unit ng/mL implied. Number only.

Query :: Give the measured Cmax for "CCC(CC)Oc1cc(C)nc(Oc2c(C)cc(C)cc2C)c1C"
Result :: 1740

----------
Protocol Description: Solubility at pH 2
Format: physicochemical
Assay Context: buffer
Quantity Name: solubility (µg/mL)
Unit µg/mL implied. Number only.

Query :: Please supply the value of reported solubility for the item "CCC(CC)Oc1cc(C)nc(Oc2c(C)cc(C)cc2C)c1C.CS(=O)(=O)O"
Result :: 3

----------
So I've got a bunch of compounds here, and I need their Vd values.
Protocol Description: Volume of distribution at terminal elimination phase in Beagle dog at 1.0 mg/kg, iv
Assay type: ADME, organism-based, Canis lupus familiaris
Design: dose 1 mg/kg, route intravenous
Assay Context: in vivo
Returns: string containing the numeric result and its unit.

Query :: Identify the reported Vd for the following entry. "CCC(CC)Oc1cc(C)nc(Oc2c(C)cc(C)cc2C)c1C"
Result :: 3.1 L/kg

Query :: Write down Vd measured for item "CCC(CC)Nc1cc(C)nc(Oc2c(C)cc(C)cc2C)c1C"
Result :: 12 L/kg
